Here the recorded inhibition is given for each entry.
target: Fructose-bisphosphate aldolase (Mycobacterium tuberculosis (strain ATCC 25618 / H37Rv)); assay: Mtb FBA enzyme inhibitors, primary screen, biochemical, fluorescence, strain H37Rv (AID 588726);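 note: 0% = vehicle and 100% = reference inhibitor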; conditions: purified M. tuberculosis FBA, fluorescence read-out, at 1 µM, hits give high values
Out of some 360,000 compounds screened, about 8,200 (2.3%) were called active. The entries come from a sample that favours actives as a whole.
Lab book: enter the figure in %, no units written.

{"compound": "CCn1ncc(C2=NOC(C(=O)N3CCN(c4ccccc4)CC3)C2)c1C (stereo not given)", "parameter": "inhibition", "observed": 0.67}
{"compound": "COc1cccc(-c2sc3ccc(OC)cc3c2-c2ccc(OCCN3CCCCC3)cc2)c1", "parameter": "inhibition", "observed": 0.81}
{"compound": "NNc1cccc(C=Cc2ccccc2)cc1=O", "parameter": "inhibition", "observed": 21.6}

q: Which inhibition is listed for COc1ccc2c(c1)c(=Cc1ccc(N(C)C)cc1)c1cc(-c3ccccc3)[n+](C)n12 ?
a: -16.1

q: Also, COc1ccc2sc(-c3ccccc3OC)c(-c3ccc(OCCN4CCCC4)cc3)c2c1 please.
a: 0.37

The measurements presented in this section are drawn from PubChem BioAssay AID588726.
